# target-or-system: PIM3 (human) (UniProt Q86V86)
# test-details: KINOMEscan competition binding
# measurement-conditions: compound 10.0 µM
Some compounds, each annotated with its measured kinase still bound, per cent of control.
parameter-measured: kinase still bound, per cent of control (%)

structure-smiles-string: Cc1ccc(C(=O)Nc2cccc(C(F)(F)F)c2)cc1Nc1cncc(C(N)=O)c1
value: 100
//
structure-smiles-string: CN(C)C/C=C/C(=O)Nc1cccc(Nc2ncc3c(n2)N(C)c2ccccc2C(=O)N3C)c1
value: 100
//
structure-smiles-string: C=CC(=O)Nc1cc(NC(=O)c2ccc(C)c(NC(=O)c3ccno3)c2)cc(C(F)(F)F)c1
value: 100
//
structure-smiles-string: CCC(=O)N1CCN(c2ccc(-n3c(=O)ccc4cnc5ccc(-c6cnc7ccccc7c6)cc5c43)cc2C(F)(F)F)CC1
value: 96
//
structure-smiles-string: Cn1c(=O)n(-c2ccc(C(C)(C)C#N)cc2)c2c3cc(-c4cnc5ccccc5c4)ccc3ncc21
value: 100
//
structure-smiles-string: O=C(NOC[C@H](O)CO)c1ccc(F)c(F)c1Nc1ccc(I)cc1F
value: 100
//
structure-smiles-string: Cc1cc([C@@H](C)Nc2ccccc2C(=O)O)c2nc(N3CCOCC3)cc(=O)n2c1
value: 100
//
structure-smiles-string: CCOc1cc2ncc(C#N)c(Nc3ccc(OCc4ccccn4)c(Cl)c3)c2cc1NC(=O)/C=C/CN(C)C
value: 100
//
structure-smiles-string: O=C1Nc2ccc(I)cc2/C1=C/c1cc(Br)c(O)c(Br)c1
value: 2
//
structure-smiles-string: COc1cc(N2CCN(C)CC2)ccc1Nc1nc(N)c(C(=O)c2c(Cl)cccc2Cl)s1
value: 100
//
structure-smiles-string: O=C(NC1CC1)c1cccc(-c2ccc3c(NC(=O)C4CC4)n[nH]c3c2)c1
value: 70
//
structure-smiles-string: OCCCNc1cc(-c2ccnc(Nc3cccc(Cl)c3)n2)ccn1
value: 100
//
structure-smiles-string: Nc1ccc(-c2ccc3ncc4ccc(=O)n(-c5cccc(C(F)(F)F)c5)c4c3c2)cn1
value: 100
//
structure-smiles-string: O=C(O)c1ccc(Nc2ncc3c(n2)-c2ccc(Cl)cc2C(c2c(F)cccc2F)=NC3)cc1
value: 42
//
structure-smiles-string: COc1cc(C(=O)NC2CCN(C)CC2)ccc1Nc1ncc2c(n1)N(C1CCCC1)CCC(=O)N2C(C)C
value: 100
//
structure-smiles-string: CCCS(=O)(=O)Nc1ccc(F)c(C(=O)c2c[nH]c3ncc(-c4ccc(Cl)cc4)cc23)c1F
value: 100
//
structure-smiles-string: CCN1CCN(Cc2ccc(Nc3ncc4c(n3)N(C)c3ccccc3C(=O)N4C)cc2C(F)(F)F)CC1
value: 84
//
structure-smiles-string: CC[C@@H]1C(=O)N(C)c2cnc(Nc3ccc(C(=O)NC4CCN(C)CC4)cc3OC)nc2N1C1CCCC1
value: 100
//
structure-smiles-string: N#Cc1c(NC(=O)c2cccc3ccccc23)sc2c1CCCC2
value: 100

* * *

# target-or-system: ERBB2 (human) (UniProt P04626)
# Sequence (P04626 whole entry, looked up): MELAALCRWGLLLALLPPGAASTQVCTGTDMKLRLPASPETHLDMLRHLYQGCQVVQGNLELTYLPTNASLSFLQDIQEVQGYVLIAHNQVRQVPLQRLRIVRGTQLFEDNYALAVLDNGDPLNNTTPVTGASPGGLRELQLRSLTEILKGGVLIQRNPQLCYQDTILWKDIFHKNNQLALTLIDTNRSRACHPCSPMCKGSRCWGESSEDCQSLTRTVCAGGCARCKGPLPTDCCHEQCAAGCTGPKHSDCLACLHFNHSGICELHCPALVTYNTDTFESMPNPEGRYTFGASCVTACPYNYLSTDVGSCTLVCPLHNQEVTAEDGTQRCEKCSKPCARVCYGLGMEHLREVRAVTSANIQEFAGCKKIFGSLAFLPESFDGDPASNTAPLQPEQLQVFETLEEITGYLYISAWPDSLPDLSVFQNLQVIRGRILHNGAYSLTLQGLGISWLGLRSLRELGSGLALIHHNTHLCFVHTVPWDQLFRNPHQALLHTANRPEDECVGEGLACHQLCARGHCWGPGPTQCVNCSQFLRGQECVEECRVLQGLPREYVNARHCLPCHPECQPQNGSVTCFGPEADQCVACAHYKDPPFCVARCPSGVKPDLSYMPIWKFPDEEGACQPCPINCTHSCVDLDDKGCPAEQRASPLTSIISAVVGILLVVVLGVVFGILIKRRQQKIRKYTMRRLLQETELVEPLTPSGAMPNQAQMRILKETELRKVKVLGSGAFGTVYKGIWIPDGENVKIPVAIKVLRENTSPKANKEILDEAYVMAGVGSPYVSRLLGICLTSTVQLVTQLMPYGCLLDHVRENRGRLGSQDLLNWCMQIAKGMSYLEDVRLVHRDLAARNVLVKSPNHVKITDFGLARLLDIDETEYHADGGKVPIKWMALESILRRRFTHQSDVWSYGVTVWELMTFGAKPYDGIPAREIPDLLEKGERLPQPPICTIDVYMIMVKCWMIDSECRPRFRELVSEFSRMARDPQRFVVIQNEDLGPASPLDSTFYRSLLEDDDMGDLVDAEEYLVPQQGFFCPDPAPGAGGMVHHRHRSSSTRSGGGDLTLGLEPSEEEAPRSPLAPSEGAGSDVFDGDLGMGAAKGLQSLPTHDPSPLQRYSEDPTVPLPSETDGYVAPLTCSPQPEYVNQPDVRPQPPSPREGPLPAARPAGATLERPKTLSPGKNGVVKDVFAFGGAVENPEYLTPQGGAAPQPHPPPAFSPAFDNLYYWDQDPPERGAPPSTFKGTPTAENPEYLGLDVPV
# test-details: KINOMEscan competition binding
# measurement-conditions: compound 10.0 µM
Reported kinase still bound, per cent of control values for a set of molecules

molecule: O=C(NOC[C@H](O)CO)c1ccc(F)c(F)c1Nc1ccc(I)cc1F
kinase still bound, per cent of control: 100%

molecule: Cc1cc([C@@H](C)Nc2ccccc2C(=O)O)c2nc(N3CCOCC3)cc(=O)n2c1
kinase still bound, per cent of control: 100%

molecule: CCN1CCN(Cc2ccc(Nc3ncc4c(n3)N(C)c3ccccc3C(=O)N4C)cc2C(F)(F)F)CC1
kinase still bound, per cent of control: 100%

molecule: Cn1c(=O)n(-c2ccc(C(C)(C)C#N)cc2)c2c3cc(-c4cnc5ccccc5c4)ccc3ncc21
kinase still bound, per cent of control: 100%

molecule: CN(C)C/C=C/C(=O)Nc1cccc(Nc2ncc3c(n2)N(C)c2ccccc2C(=O)N3C)c1
kinase still bound, per cent of control: 65%

molecule: COc1cc(C(=O)NC2CCN(C)CC2)ccc1Nc1ncc2c(n1)N(C1CCCC1)C(C)CC(=O)N2C (centres undefined)
kinase still bound, per cent of control: 100%

molecule: Cc1ccc(C(=O)Nc2cccc(C(F)(F)F)c2)cc1Nc1cncc(C(N)=O)c1
kinase still bound, per cent of control: 100%

molecule: CCC(=O)N1CCN(c2ccc(-n3c(=O)ccc4cnc5ccc(-c6cnc7ccccc7c6)cc5c43)cc2C(F)(F)F)CC1
kinase still bound, per cent of control: 91%

molecule: C=CC(=O)Nc1cc(NC(=O)c2ccc(C)c(NC(=O)c3ccno3)c2)cc(C(F)(F)F)c1
kinase still bound, per cent of control: 100%

molecule: Cc1ccc2nc(NCCN)c3ncc(C)n3c2c1
kinase still bound, per cent of control: 100%

molecule: COc1cc(C(=O)NC2CCN(C)CC2)ccc1Nc1ncc2c(n1)N(C1CCCC1)CCC(=O)N2C(C)C
kinase still bound, per cent of control: 100%

molecule: Cc1ccc(NC(=O)c2cccc(C(C)(C)C#N)c2)cc1Nc1ccc2ncn(C)c(=O)c2c1
kinase still bound, per cent of control: 72%

molecule: CCOc1cc2ncc(C#N)c(Nc3ccc(OCc4ccccn4)c(Cl)c3)c2cc1NC(=O)/C=C/CN(C)C
kinase still bound, per cent of control: 0%

molecule: CC[C@@H]1C(=O)N(C)c2cnc(Nc3ccc(C(=O)NC4CCN(C)CC4)cc3OC)nc2N1C1CCCC1
kinase still bound, per cent of control: 100%

molecule: OCCCNc1cc(-c2ccnc(Nc3cccc(Cl)c3)n2)ccn1
kinase still bound, per cent of control: 100%

molecule: Nc1ccc(-c2ccc3ncc4ccc(=O)n(-c5cccc(C(F)(F)F)c5)c4c3c2)cn1
kinase still bound, per cent of control: 97%

molecule: COc1cc(N2CCN(C)CC2)ccc1Nc1nc(N)c(C(=O)c2c(Cl)cccc2Cl)s1
kinase still bound, per cent of control: 100%

molecule: N#Cc1c(NC(=O)c2cccc3ccccc23)sc2c1CCCC2
kinase still bound, per cent of control: 87%

molecule: C=CC(=O)Nc1cccc(Nc2nc(N[C@H]3CC[C@H](N(C)C)CC3)nc3c2ncn3C(C)C)c1
kinase still bound, per cent of control: 100%

All values here come from the kinase profiling compilation of Christmann-Franck et al. (2016).
